Target Or System: NAD-dependent protein deacetylase sirtuin-1 (Homo sapiens)
Sequence (whole entry): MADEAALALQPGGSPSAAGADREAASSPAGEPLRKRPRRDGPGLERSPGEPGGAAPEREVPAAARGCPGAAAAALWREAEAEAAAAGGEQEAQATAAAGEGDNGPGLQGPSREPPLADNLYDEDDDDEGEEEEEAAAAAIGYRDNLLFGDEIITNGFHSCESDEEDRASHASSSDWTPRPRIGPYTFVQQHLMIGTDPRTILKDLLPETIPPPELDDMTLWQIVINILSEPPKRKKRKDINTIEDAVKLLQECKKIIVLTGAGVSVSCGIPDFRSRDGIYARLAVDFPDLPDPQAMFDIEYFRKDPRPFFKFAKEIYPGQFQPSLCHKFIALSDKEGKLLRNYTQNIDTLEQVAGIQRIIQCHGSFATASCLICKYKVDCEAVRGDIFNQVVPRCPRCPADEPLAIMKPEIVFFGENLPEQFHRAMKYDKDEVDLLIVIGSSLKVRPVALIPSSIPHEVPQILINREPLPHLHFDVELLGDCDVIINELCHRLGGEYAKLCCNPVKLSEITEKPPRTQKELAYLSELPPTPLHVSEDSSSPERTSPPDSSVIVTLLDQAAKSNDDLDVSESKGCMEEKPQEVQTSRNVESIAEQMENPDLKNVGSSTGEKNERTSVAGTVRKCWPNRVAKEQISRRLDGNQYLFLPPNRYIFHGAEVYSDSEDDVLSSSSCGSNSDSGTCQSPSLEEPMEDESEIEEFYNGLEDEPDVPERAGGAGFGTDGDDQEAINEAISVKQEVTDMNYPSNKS
Assay: Inhibition of human N-terminal His-tagged SIRT1 expressed in Escherichia coli at 50 uM using p53 (Arg-His-Lys-Lys(Ac)) (379 to 382 residues) as substrate incubated for 3 hrs measured up to 30 mins by fluorescence assay relative to control
Reported Property: inhibition (%)

O=C(NCc1ccccc1)c1ccccc1Nc1cccc(OCCc2ccccc2)c1 | 12

a. O=C(Nc1ccccc1)c1ccccc1Nc1cccc(OCCc2ccccc2)c1
b. O=C(NC1CCCCC1)c1ccccc1Nc1cccc(OCCc2ccccc2)c1
c. O=C(O)c1ccccc1Nc1cccc(OCCc2ccccc2)c1
Q: Place the items in sequence of falling inhibition. Answer by listing the labels in the order asked for.
A: b, a, c
